- method description: In vivo pharmacokinetic study, plasma and brain levels by LC-MS
- Set-up: species or system mice
- condition set: male, C57BL/6, mouse, in vivo, ip, 1 mg/kg
- Method: The compounds pharmacokinetic properties were examined in vivo by administering the compounds intraperitoneally (i.p.) at 1 mg/kg in mice, and determining plasma and brain levels over 8 h by LC-MS measurements. The pharmacokinetic study was performed by Pharmacelsus (Saarbrücken, Germany). In total 27 male C57BL/6 mice (8 weeks old, 23-31 g body weight, purchased from Janvier Labs, France) were used. […]
property: AUC(0-t) (ng·h/mL)
Field format: number, assumed ng·h/mL, no unit text.

Record excerpt, results attached:
molecule | AUC(0-t), ng·h/mL
O=C(O)COCCN1CCCN(C2=Nc3ccccc3Oc3ccc(C(F)(F)F)cc32)CC1 [Compound 9] | 123
CN1CCN(C2=Nc3cc(F)ccc3Oc3ccc(C(F)(F)F)cc32)CC1 [Compound 4] | 108
CN1CCN(C2=Nc3ccccc3Oc3ccc(C(F)(F)F)cc32)CC1 [Compound 2] | 67.8
OCCN1CCN(C2=Nc3ccccc3Oc3ccc(Cl)cc32)CC1 [Compound 5] | 49.6

Next:
Ask | I'd like to know its AUC(0-t). The molecule in question is O=C(O)COCCN1CCN(C2=Nc3ccccc3Oc3ccc(Cl)cc32)CC1 [Compound 6]
Reply | 420

Measured values drawn from patent US20260258003A1 for this set.
